meta.source: patent US10815210B2

# Target Or Test System: human SGLT2 (Homo sapiens, UniProt P31639)
# Construct: expressed in transfected cells; host or cells: CHO-K1
# Sequence (P31639 whole entry): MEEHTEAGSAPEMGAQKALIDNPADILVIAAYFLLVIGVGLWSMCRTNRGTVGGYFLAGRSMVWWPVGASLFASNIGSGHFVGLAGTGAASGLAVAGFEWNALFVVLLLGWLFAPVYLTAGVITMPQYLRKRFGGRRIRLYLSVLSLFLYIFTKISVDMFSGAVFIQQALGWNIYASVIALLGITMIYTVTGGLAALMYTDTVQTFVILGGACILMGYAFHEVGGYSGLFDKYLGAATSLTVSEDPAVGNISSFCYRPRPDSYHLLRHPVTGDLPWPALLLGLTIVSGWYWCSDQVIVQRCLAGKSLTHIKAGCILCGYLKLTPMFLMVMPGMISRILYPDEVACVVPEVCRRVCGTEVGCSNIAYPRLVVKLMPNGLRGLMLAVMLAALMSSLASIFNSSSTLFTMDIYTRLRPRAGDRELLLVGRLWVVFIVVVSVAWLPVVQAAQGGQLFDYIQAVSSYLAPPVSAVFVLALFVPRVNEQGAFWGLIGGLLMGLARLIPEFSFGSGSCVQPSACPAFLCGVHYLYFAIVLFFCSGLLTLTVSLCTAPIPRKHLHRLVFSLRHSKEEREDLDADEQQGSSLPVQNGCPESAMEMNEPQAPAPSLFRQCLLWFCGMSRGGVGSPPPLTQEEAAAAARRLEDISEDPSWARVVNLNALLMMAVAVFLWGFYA
# Assay Method Text: SGLT2 assay: Na-dependent 14C-AMG uptake in CHO-K1 cells stably expressing human SGLT2
# Assay type: cell-based
# Assay Context: at 0.03 μM
Classify as follows. Reported inhibition at 0.03 µM greater than or equal to 40%: 1 (yes). Reported inhibition at 0.03 µM below: 0 (no).

>>> df
                               smiles_input  label_class
0  OC[C@H]1O[C@@H](c2cc(Cc3ccc4c(c3)CC4)c(F)cc2O)[C@H](O)[C@@H](O)[C@@H]1O       0 (no)
1  N#Cc1ccc([C@@H]2O[C@H](CO)[C@@H](O)[C@H](O)[C@H]2O)cc1Cc1ccc2c(c1)CC2      1 (yes)
2  CCc1cc(OC(F)F)c([C@@H]2O[C@H](CO)[C@@H](O)[C@H](O)[C@H]2O)cc1Cc1ccc2c(c1)CC2      1 (yes)

Please tell me: is the molecule COc1cc(OC(F)F)c([C@@H]2O[C@H](CO)[C@@H](O)[C@H](O)[C@H]2O)cc1Cc1ccc2c(c1)CC2 at or over 40% in terms of inhibition at 0.03 µM?
1 (yes)

Please tell me: is the molecule COc1cc(C2CC2)c(Cc2ccc3c(c2)CC3)cc1[C@@H]1O[C@H](CO)[C@@H](O)[C@H](O)[C@H]1O at or over 40% in terms of inhibition at 0.03 µM?
0 (no)

Please tell me: is the molecule [2H]C1([2H])Cc2ccc(Cc3cc([C@@H]4O[C@H](CO)[C@@H](O)[C@H](O)[C@H]4O)c(F)cc3C)cc21 at or over 40% in terms of inhibition at 0.03 µM?
0 (no)

Please tell me: is the molecule CN(C)c1ccc([C@@H]2O[C@H](CO)[C@@H](O)[C@H](O)[C@H]2O)cc1Cc1ccc2c(c1)CC2 at or over 40% in terms of inhibition at 0.03 µM?
0 (no)
